Values were extracted from the RNAGym collection of RNA variant scans (doi:10.7554/elife.90254).

B1: OR4K15 (parent)
chain: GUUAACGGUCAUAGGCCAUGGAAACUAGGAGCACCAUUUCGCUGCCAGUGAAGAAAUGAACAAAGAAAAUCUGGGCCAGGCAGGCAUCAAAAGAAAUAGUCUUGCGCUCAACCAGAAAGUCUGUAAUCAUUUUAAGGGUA

Variants of: B1
Assay: self-cleavage, relative activity (ratio to wild type); higher = more cleavage; in vitro, sequencing; the parent is a self-cleaving ribozyme
Listed below: self-cleavage values for each entry.
outcome-measure: self-cleavage

{"columns": ["variant-notation", "result"],
 "data": [
  ["A47U A111G", 0.04],
  ["C35A C61U", 1.59],
  ["G74A C76U", 0.11],
  ["A4G U72A", 0.22],
  ["A92G A129U", 1.16],
  ["A11G A54G", 1.01],
  ["C6U A116G", 0.34],
  ["A126U A135G", 1.24],
  ["U9A U43A", 0.83],
  ["A27U G99A", 0.6],
  ["A63G A82G", 0.74],
  ["A66G U100A", 0.58],
  ["A82C A91U", 0.3],
  ["A62G A67C", 1.96],
  ["A5U A24G", 1.12],
  ["G31U A52G", 1.71],
  ["G8A A129U", 1.63],
  ["G44A U102A", 1.56],
  ["A18U U39G", 0.98]
]}
